Data credit: the OPERA property sets (Mansouri et al. 2018)

measured_endpoint: melting point
Show the value, then the unit it is measured in.

Form field melting point, entry O=[N+]([O-])c1c(Cl)ncnc1Cl : 102 °C

The compound O=Cc1cccc(C=O)c1 showed melting point equal to 89.5 °C

The compound listed as O=C(OC[C@H]1O[C@](O)(COC(=O)c2cccnc2)[C@@H](OC(=O)c2cccnc2)[C@@H]1OC(=O)c1cccnc1)c1cccnc1 shows melting point equal to 141 °C

melting point reading for CCCCOCOCCCC : -58.1 °C

Record CCNC(=O)C1CC(C)CCC1C(C)C (centres undefined) , field melting point: 88 °C

Given item CC1CCCNC1=O (centres undefined) , the value recorded as its melting point is 55.3 °C

Per the records, this compound ( NCCCCN ) has melting point equal to 27.5 °C

Record N#CC#CC#N . Reported melting point: 20.5 °C

The compound listed as COC(=O)[C@H]1[C@H]2C[C@@H]3c4[nH]c5ccccc5c4CCN3C[C@H]2C[C@@H](OC(=O)c2cc(OC)c(OC)c(OC)c2)[C@@H]1OC shows melting point equal to 230 °C

Kindly note the recorded melting point for CCC#CCCCCC(=O)O , which is 14 °C

The recorded melting point for entry Cc1cccc(C(C)(C)C)c1O equals 31 °C

Short answer for O=C1CCCCCO1 : melting point was -18 °C

Item: NCCNCCNCCN | melting point: 12 °C

melting point reading for FC(F)(F)c1ccc(Cl)c(Cl)c1 : -12.5 °C

Recorded result, CCCCCC1CCCCC1 , melting point: -57.5 °C

The compound listed as O=c1[nH]c(=O)n(C2CCCO2)cc1F (centres undefined) has a reported melting point of 172 °C

The reported melting point of the compound O=Cc1ccc2ccccc2c1 was 62 °C

Recorded result, O=[N+]([O-])c1ccc(Oc2ccccc2)c([N+](=O)[O-])c1 , melting point: 71 °C

Summary for this compound, O=C(O)CNC(=O)OCc1ccccc1 : melting point is 121 °C

// sample CC(C)(c1ccccc1)c1ccccc1 , its melting point was 29 °C

Note to self: melting point recorded for O=C(c1ccccc1)c1cccnc1 was 38 °C

Record summary for COC(=O)C(C)O (centres undefined) : reported melting point = -66 °C

Reported melting point of Cc1cc(Sc2cc(C)c(O)c(C(C)(C)C)c2)cc(C(C)(C)C)c1O : 126 °C

O=C(CS)Nc1ccc2ccccc2c1 yielded melting point of 112 °C

Given item CC(=O)Oc1cc(C)c(OC(C)=O)c2ccccc12 , the value recorded as its melting point is 113 °C

Value of melting point reported for the compound COc1ccc(N=Nc2ccccc2)cc1 is 56 °C

The value of melting point measured for the compound C=C(C)Br turned out to be -126 °C

melting point for ClC(Br)(Br)Br is 55 °C

Looking up Nc1cc(Cl)c(S(N)(=O)=O)cc1S(N)(=O)=O , I see its melting point listed as 254 °C

Form field melting point, entry Ic1ccc(-c2ccccc2)cc1 : 114 °C

Consider O=C(CCc1ccc(O)cc1)c1c(O)cc(O)cc1O[C@@H]1O[C@H](CO)[C@@H](O)[C@H](O)[C@H]1O . Its measured melting point is 110 °C

# melting point of N#Cc1cccc(Cl)c1 = 41 °C

Measured melting point of CCCCCC(C=O)=Cc1ccccc1 : 80 °C

Note to self: melting point recorded for c1ccc2c(c1)ccc1c3ccccc3ccc21 was 258 °C

Form: compound = CC1CCCC(C)N1C(=O)COC(=O)c1ccccc1 (centres undefined) ; melting point = 118 °C

The value of melting point measured for the compound O=C(O)C(Br)Br turned out to be 49 °C

NS(=O)(=O)c1ccc(Cl)c(S(N)(=O)=O)c1 yielded melting point of 207 °C

get_value(item= N#Cc1cc(I)c([O-])c(I)c1.[Na+] , readout=melting point) returns 360 °C

Just so you know, measured melting point for O=C(O)c1cc(O)nc(O)n1 came out at 346 °C
